B1: H2-Kb / H5 (parent)
chain 1: GEQVEQRPPHLSVREGDSAVIICTYTDPNSYYFFWYKQEPGAGLQLLMKVFSSTEINEGQGFTVLLNKKDKQLSLNLTAAHPGDSAVYFCAVSNYGSSGNKLIFGIGTLLSVKP
chain 2: EAAVTQSPRNKVAVTGGKVTLSCNQTNNHNNMYWYRQDTGHGLRLIHYSYGAGSTEKGDIPDGYKASRPSQENFSLILELATPSQTSVYFCASGDRERDTQYFGPGTRLLVL
chain 3: not shown
chain 4: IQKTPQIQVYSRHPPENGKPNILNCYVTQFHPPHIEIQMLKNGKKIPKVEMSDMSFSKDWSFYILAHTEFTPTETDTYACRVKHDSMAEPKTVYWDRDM
chain 5: SIINFEKL

# Variants of: B1
# RUN_DESCRIPTION: % of reporter cells activated (NFAT-GFP), raw; further: test concentration or dose not given here
# MEASUREMENT_CONDITIONS: with H5; scale: % of reporter cells activated
One threshold, 0.5, splits the recorded ratio to parent values: lower ones are t, equal or higher ones are f.

Exercise: Dear reviewer, please state whether chain 5 F5T has ratio to parent strictly beneath 0.5.
Key: t

Exercise: What would you report for chain 5 L8G ?
Key: f

Exercise: What would you report for chain 5 F5Q ?
Key: f

Exercise: What would you report for chain 5 F5S ?
Key: f

Exercise: What would you report for chain 5 F5Y ?
Key: f

Exercise: What would you report for chain 5 E6N ?
Key: t

Exercise: What would you report for chain 5 K7L ?
Key: f

Exercise: What would you report for chain 5 K7C ?
Key: f

Exercise: What would you report for chain 5 I3G ?
Key: t

Exercise: What would you report for chain 5 L8Y ?
Key: f

Exercise: What would you report for chain 5 E6A ?
Key: t

Exercise: What would you report for chain 5 F5P ?
Key: t

Exercise: What would you report for chain 5 S1F ?
Key: f

Exercise: What would you report for chain 5 N4E ?
Key: t

Exercise: What would you report for chain 5 E6Y ?
Key: t

Exercise: What would you report for chain 5 N4R ?
Key: t

Exercise: What would you report for chain 5 N4L ?
Key: t

Exercise: What would you report for chain 5 S1P ?
Key: t

Exercise: What would you report for chain 5 K7N ?
Key: f

Exercise: What would you report for chain 5 E6K ?
Key: t

Exercise: What would you report for chain 5 K7S ?
Key: f

Exercise: What would you report for chain 5 S1C ?
Key: t

Exercise: What would you report for chain 5 N4Q ?
Key: t

Exercise: What would you report for chain 5 I2S ?
Key: f

Exercise: What would you report for chain 5 S1N ?
Key: t

Exercise: What would you report for chain 5 L8R ?
Key: t

Exercise: What would you report for chain 5 L8K ?
Key: f

Exercise: What would you report for chain 5 L8I ?
Key: f

Exercise: What would you report for chain 5 N4K ?
Key: f

Exercise: What would you report for chain 5 F5W ?
Key: f

Exercise: What would you report for chain 5 E6L ?
Key: t

Exercise: What would you report for chain 5 F5K ?
Key: t

Exercise: What would you report for chain 5 E6G ?
Key: t

Exercise: What would you report for chain 5 I3Q ?
Key: t

Exercise: What would you report for chain 5 S1K ?
Key: f

Exercise: What would you report for chain 5 F5H ?
Key: f

Exercise: What would you report for chain 5 E6F ?
Key: t

Exercise: What would you report for chain 5 S1E ?
Key: t

Exercise: What would you report for chain 5 L8C ?
Key: f

Exercise: What would you report for chain 5 I2P ?
Key: t

Exercise: What would you report for chain 5 S1A ?
Key: t

Exercise: What would you report for chain 5 S1I ?
Key: t

Exercise: What would you report for chain 5 F5D ?
Key: t

Exercise: What would you report for chain 5 E6W ?
Key: t

Exercise: What would you report for chain 5 E6C ?
Key: t

Exercise: What would you report for chain 5 E6M ?
Key: t

Exercise: What would you report for chain 5 L8W ?
Key: t

Exercise: What would you report for chain 5 N4M ?
Key: t

Exercise: What would you report for chain 5 E6V ?
Key: t

Exercise: What would you report for chain 5 K7M ?
Key: t

Exercise: What would you report for chain 5 F5N ?
Key: t
